The measured values listed here are drawn from paper PMC5452050.

Exercise: for every item that follows, state its recorded pKd.
- testSystem: NEK10 (Homo sapiens)
- Sequence (Q6ZWH5 1-1172): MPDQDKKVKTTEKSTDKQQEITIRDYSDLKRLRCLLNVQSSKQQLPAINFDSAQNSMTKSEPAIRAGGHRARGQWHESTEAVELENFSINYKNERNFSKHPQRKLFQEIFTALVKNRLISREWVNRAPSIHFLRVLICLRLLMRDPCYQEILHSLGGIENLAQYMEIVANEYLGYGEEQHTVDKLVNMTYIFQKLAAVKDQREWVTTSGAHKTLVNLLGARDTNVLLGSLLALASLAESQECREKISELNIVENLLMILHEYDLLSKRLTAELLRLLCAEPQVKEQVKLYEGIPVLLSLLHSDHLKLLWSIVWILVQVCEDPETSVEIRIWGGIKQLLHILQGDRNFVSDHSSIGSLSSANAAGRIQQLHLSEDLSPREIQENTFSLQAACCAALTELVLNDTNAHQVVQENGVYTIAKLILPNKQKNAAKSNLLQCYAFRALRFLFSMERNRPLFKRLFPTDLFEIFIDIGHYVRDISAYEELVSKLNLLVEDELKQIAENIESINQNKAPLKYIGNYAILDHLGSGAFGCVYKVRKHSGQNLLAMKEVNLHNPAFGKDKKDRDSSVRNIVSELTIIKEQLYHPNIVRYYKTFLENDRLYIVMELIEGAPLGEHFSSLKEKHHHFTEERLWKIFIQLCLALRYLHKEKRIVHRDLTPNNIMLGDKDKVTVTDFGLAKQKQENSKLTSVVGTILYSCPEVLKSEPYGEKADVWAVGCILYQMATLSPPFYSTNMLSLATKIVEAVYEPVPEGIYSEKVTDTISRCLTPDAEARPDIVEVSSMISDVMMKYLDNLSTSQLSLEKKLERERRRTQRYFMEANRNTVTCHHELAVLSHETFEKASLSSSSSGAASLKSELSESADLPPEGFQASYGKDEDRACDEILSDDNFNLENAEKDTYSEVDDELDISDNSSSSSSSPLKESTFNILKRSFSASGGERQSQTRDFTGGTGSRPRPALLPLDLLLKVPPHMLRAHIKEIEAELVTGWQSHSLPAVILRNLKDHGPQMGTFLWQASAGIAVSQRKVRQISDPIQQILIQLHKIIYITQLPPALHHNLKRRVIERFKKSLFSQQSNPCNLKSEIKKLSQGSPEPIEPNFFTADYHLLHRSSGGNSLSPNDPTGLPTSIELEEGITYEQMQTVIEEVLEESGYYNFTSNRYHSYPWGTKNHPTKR
Remember, pKd is on a log scale: it is -log10 of the molar concentration.

Enquiry: Retrieve pKd measured for `CC(C)Nc1ccnc(Nc2cccc(-c3cccnc3)c2)n1` and print it.
Return: 5.70

Enquiry: Retrieve pKd measured for `c1cncc(-c2cccc(Nc3nccc(NC4CCCCC4)n3)c2)c1` and print it.
Return: 6.39

====

Exercise: for every item that follows, state its recorded pKd.
- testSystem: FLT3 (ITD, D835V) (Homo sapiens, UniProt P36888, D835V/ITD)
- procedureText: Kd determination
Remember, pKd is on a log scale: it is -log10 of the molar concentration.

Enquiry: Retrieve pKd measured for `CC(C)Nc1ccnc(Nc2cccc(-c3cccnc3)c2)n1` and print it.
Return: 9.44

Enquiry: Retrieve pKd measured for `c1cncc(-c2cccc(Nc3nccc(NC4CCCCC4)n3)c2)c1` and print it.
Return: 8.14
